Target: T1, 4H56-bA
T1 chain: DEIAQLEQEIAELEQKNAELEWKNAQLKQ
Assay: two-hybrid library CCNG1;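 further: natural log of median RNA to DNA barcode read ratio; higher means stronger binding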
measured_endpoint: interaction score

{"binder": "DEIAQLEQKIAELEQEIAELEWKNAQLKQ [4H264-bA]", "measured_endpoint": "interaction score", "reported": -0.504}
{"binder": "DKIAQLKQKIAELKQKNAELEWENAQLEQ [4H2931-bA]", "measured_endpoint": "interaction score", "reported": 0.684}
{"binder": "DKIQELKKEIEELKRKNWELEKEIQELER [4H2673-bH]", "measured_endpoint": "interaction score", "reported": 0.863}
{"binder": "DKNAQLEQENAELKQKIAELEWEIAQLEQ [4H3297-bA]", "measured_endpoint": "interaction score", "reported": -0.874}
{"binder": "DKNAQLEQKIAELEQKNAELEWKIAQLEQ [4H3381-bA]", "measured_endpoint": "interaction score", "reported": -0.961}
